Tested on: RXF 393 renal
Experiment: NCI-60 one-dose screen, 48 h
Settings: 10 µM unless noted
The panel holds about 83,000 compounds, 20% with a hit somewhere; the sample as a whole holds those more often. Calls of active or inactive are those of the source. How the source made its calls: active means growth percent below 10; inactive means the rest.
Give your call using only these classes: 1 for active, 0 for inactive

Would you please look over these solved cases?
itemsmiles=Clc1ccccc1[C@@H]1C[C@@H]2Cc3cc(Br)c4ccccc4c3N1O2 labelclass=0
itemsmiles=c1ccc(-c2nn[nH]n2)c(-c2ccc(CN3CCN(c4nsc5ccccc45)CC3)cc2)c1 labelclass=0
itemsmiles=COc1ccc(-c2cnnn2-c2cc(OC)c3c(c2)OCO3)cc1 labelclass=0
itemsmiles=C[C@]12CC[C@@H]3c4ccc(O)cc4CC[C@H]3[C@@H]1CC[C@@H]2NS(=O)(=O)c1cccc(Br)c1 labelclass=0

Which result was noted for this compound in the test: Cn1cc(-c2csc(-c3cn(C)c4ncccc34)n2)c2cc(Br)cnc21 0

Which result was noted for this compound in the test: COC(=O)[C@]1(CCSC)N[C@H](c2cn(-c3ccccc3)nc2C)[C@@H]2C(=O)N(c3ccc(C)cc3)C(=O)[C@@H]21 0

Which result was noted for this compound in the test: Cc1c(C(N)=O)sc2c1c(=O)n(Cc1ccccc1)c1nnc(SCC(=O)Nc3ccc(Cl)cc3)n21 0

Which result was noted for this compound in the test: O=C(C=C=Nc1ccccc1)C(=O)N=C=Cc1ccccc1 1

Which result was noted for this compound in the test: Cc1c(C(N)=O)sc2c1C(=O)N(Cc1ccccc1)C1=NN=C(c3ccc(Cl)cc3)CN12 0

###

System: SK-MEL-5 melanoma
Test: NCI-60 one-dose screen, 48 h (100 = growth as untreated, 0 = no growth, -100 = all killed)
Conditions: 10 µM unless noted
Compounds without any hit were thinned out: in the full panel of roughly 83,000, 20% have a hit.
# strict inequality: growth < 60% yields T, everything else yields F

itemsmiles=CC(=O)n1c2ccccc2c2ccccc21 systemundertest="SK-MEL-5 melanoma" labelclass=F

Determine whether this molecule shows growth lower than 60% (ties excluded): O=C(COC(=O)[C@H](C[Se][Se]C[C@H](NC(=O)c1ccc(Br)cc1F)C(=O)OCC(=O)c1ccc(F)cc1)NC(=O)c1ccc(Br)cc1F)c1ccc(F)cc1 T

Determine whether this molecule shows growth lower than 60% (ties excluded): c1ccc2c(c1)[nH]c1c2cc[n+]2cc3c(cc12)CCCC3 T

Determine whether this molecule shows growth lower than 60% (ties excluded): COc1ccc(-c2c3c(nn2-c2ccc(N)cc2)CCc2cnoc2-3)cc1OC F

Determine whether this molecule shows growth lower than 60% (ties excluded): C/C(=N/N=C(N)N)c1ccc(Cl)cc1 F

Determine whether this molecule shows growth lower than 60% (ties excluded): O=c1cc(-c2cccnc2)oc2c1ccc1ccccc12 F

Determine whether this molecule shows growth lower than 60% (ties excluded): O=C(Nc1ccc(OCc2nnc(-c3ccccc3)o2)c(F)c1)Nc1ccc(Cl)c(C(F)(F)F)c1 T

Determine whether this molecule shows growth lower than 60% (ties excluded): COc1ccc(-c2cnnn2-c2cc(OC)c3c(c2)OCO3)cc1 T

Determine whether this molecule shows growth lower than 60% (ties excluded): C[C@]12CC[C@@H]3c4ccc(O)c([N+](=O)[O-])c4CC[C@H]3[C@@H]1CC[C@@H]2NS(=O)(=O)c1cccc(Br)c1 T

Determine whether this molecule shows growth lower than 60% (ties excluded): OC(CCC(O)(c1ccccc1)c1ccccc1)(c1ccccc1)c1ccccc1 F

###

System: KM12 colon
Test: NCI-60 one-dose screen, 48 h (100 = growth as untreated, 0 = no growth, -100 = all killed)
Conditions: 10 µM unless noted
This is part of a sample that, as a whole, favours compounds with a hit. Of some 83,000 tested, about 20% had one in any assay.
reportedProperty: growth (%)
Please state the figure in %; there is no need to write the unit.

itemsmiles=Cc1c(C(N)=O)sc2ncn(CC(=O)Nc3ccc(Cl)cc3)c(=O)c12 reportedproperty=growth observedmeasurement=117
itemsmiles=NC(N)=N/N=C(/c1ccccc1)c1ccc(Cl)cc1 reportedproperty=growth observedmeasurement=28.3
itemsmiles=O=C(Nc1cccc2ccccc12)c1cc2c(cc1Br)OCO2 reportedproperty=growth observedmeasurement=103
itemsmiles=Cc1cc(NCCCNc2ccnc3cc(Cl)ccc23)nc(N2CCN(C)CC2)n1 reportedproperty=growth observedmeasurement=52.6
itemsmiles=Cc1cc2c(cc1C)Nc1sc(NC(=O)CN3CCN(C)CC3)nc1C(=O)N2 reportedproperty=growth observedmeasurement=102

Lab note: need growth with KM12 colon for entry Clc1ccc([C@@H]2C[C@@H]3Cc4cc(Br)c5ccccc5c4N2O3)c(Cl)c1 , please look it up. 66.7

###

Test system: EKVX NSCLC
Assay: NCI-60 one-dose screen, 48 h (100 = growth as untreated, 0 = no growth, -100 = all killed)
Settings: 10 µM unless noted
This is part of a sample that, as a whole, favours compounds with a hit. Of some 83,000 tested, about 20% had one in any assay.
Rule: growth of 90% or more gives satisfied; anything lower gives not satisfied.

Would you please look over these solved cases?
molecule=Cc1cc(NC(=O)Nc2cc(Cl)ccc2C)no1 systemundertest="EKVX NSCLC" labelclass="not satisfied"
molecule="CC(=O)Oc1c(C)c(OC(C)=O)c2c(c1C(C)=O)OC1CC(=O)C(C(C)=O)=C(O)C21C (configuration not stated)" systemundertest="EKVX NSCLC" labelclass=satisfied

Hi team, for Cc1cc(C)n(C(=O)c2nn(-c3ccc(Cl)cc3)cc2O)n1 , is the recorded growth at or above 90%? not satisfied

###

Test system: U251 CNS
Assay: NCI-60 one-dose screen, 48 h (100 = growth as untreated, 0 = no growth, -100 = all killed)
Details: 10 µM unless noted
Compounds without any hit were thinned out: in the full panel of roughly 83,000, 20% have a hit.
reportedProperty: growth (%)
Please state the figure in %; there is no need to write the unit.

Use the examples below as a reference point.
molecule=O=c1c(O)cccn1CCCNCCCN(CCCn1cccc(O)c1=O)CCCn1cccc(O)c1=O unitofmeasure=% observedmeasurement=93.8
molecule=CC(=O)Nc1ccc2c(c1)Cc1c(F)c(F)c(F)c(F)c1-2 unitofmeasure=% observedmeasurement=78.8
molecule=O=C(/C=C/c1cccnc1)/C=C/c1cccnc1 unitofmeasure=% observedmeasurement=-34.9
molecule=CSc1nnc(C2=CC(=O)c3ccccc3C2=O)n1-c1ccccc1 unitofmeasure=% observedmeasurement=76.5
molecule=Cc1nn(-c2ccc(Cl)cc2)c2nc3c(nc12)C(=O)c1ccccc1-3 unitofmeasure=% observedmeasurement=47
molecule=COc1ccc(OC)c(NC(=O)c2cc3oc4ccccc4c3cc2O)c1 unitofmeasure=% observedmeasurement=120

Return reported growth; argument: O=c1[nH]c(Cl)nc2c1cnn2-c1ccccc1 100

Return reported growth; argument: Cc1ccccc1-c1cc(Cc2ccccc2O)c(=O)[nH]n1 103

Return reported growth; argument: Cc1ccc(NC(=O)Nc2ccc(-c3cccnc3)cc2N2CCC(CO)CC2)cc1 11.3

Return reported growth; argument: O=C1Nc2ccccc2C12Nc1cc(Cl)ccc1S2 (configuration not stated) 98.5

Return reported growth; argument: c1csc([C@@H]2C[C@@H]3Cc4ccc5ccccc5c4N2O3)c1 96.8

###

Test system: MALME-3M melanoma
Experiment: NCI-60 one-dose screen, 48 h (100 = growth as untreated, 0 = no growth, -100 = all killed)
Conditions: 10 µM unless noted
Compounds without any hit were thinned out: in the full panel of roughly 83,000, 20% have a hit.
reportedProperty: growth (%)
Please state the figure in %; there is no need to write the unit.

compound=CCOc1nc(-c2ccccc2)cc2c(O)c(C(=O)n3nc(C)cc3C)[nH]c(=O)c12 systemundertest="MALME-3M melanoma" reportedproperty=growth unitofmeasure=% observedmeasurement=102

Below: the item to evaluate.
Return reported growth; argument: Nc1nc(SCc2ccccc2Cl)c(-c2ccccc2)c(SCc2ccccc2Cl)n1 110

###

Attribute: growth
Test system: UACC-257 melanoma
Assay: NCI-60 one-dose screen, 48 h (100 = growth as untreated, 0 = no growth, -100 = all killed)
Conditions: 10 µM unless noted
Compounds without any hit were thinned out: in the full panel of roughly 83,000, 20% have a hit.
Please state the figure in %; there is no need to write the unit.

compound=C/C(=N/N=C(N)N)c1ccc(Cl)cc1 systemundertest="UACC-257 melanoma" observedmeasurement=77.1
compound="CC/C=C\\C=C/C(=O)N/C=C/CC1Cc2cccc(O)c2C(=O)O1 (stereo unspecified)" systemundertest="UACC-257 melanoma" observedmeasurement=86.7
compound="O=C1Nc2ccccc2C12Nc1cc(Cl)ccc1S2 (stereo unspecified)" systemundertest="UACC-257 melanoma" observedmeasurement=138
compound=CSc1nnc(C2=CC(=O)c3ccccc3C2=O)n1-c1ccccc1 systemundertest="UACC-257 melanoma" observedmeasurement=86.7
compound=O=C(Nc1nc2ccccc2s1)c1cc(-c2ccc(F)cc2)n2nc(-c3ccccc3)cc2n1 systemundertest="UACC-257 melanoma" observedmeasurement=69

Return reported growth; argument: COc1ccc(C2=NN(C(=O)c3cc(OC)c(OC)c(OC)c3)C(c3ccc(C#N)cc3)C2)cc1OC (stereo unspecified) 69.2

Return reported growth; argument: COc1ccc(-c2c3c(nn2-c2ccc(N)cc2)CCc2cnoc2-3)cc1OC 112

Return reported growth; argument: COc1ccc(Cn2cc3c(c2-c2ccccc2)CCc2cncnc2-3)cc1 74.9

Return reported growth; argument: CCOC(=O)c1c(NC(=O)C2CCCCC2C(=O)O)sc2c1CCCC2 (stereo unspecified) 92.1

Return reported growth; argument: O=C1c2ccccc2C(=O)c2c1cccc2-n1nnc2ccccc21 127

Return reported growth; argument: COc1ccc2c(c1)nc(N)c1c3cc(C)c(C)cc3cn21 83.7
